# targetOrSystem: NT-3 growth factor receptor (Homo sapiens) (UniProt Q16288);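 also: mean percent inhibition of TRKC, reported within the GSK PKIS dataset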
# Sequence (Q16288 32-839 limits assumed): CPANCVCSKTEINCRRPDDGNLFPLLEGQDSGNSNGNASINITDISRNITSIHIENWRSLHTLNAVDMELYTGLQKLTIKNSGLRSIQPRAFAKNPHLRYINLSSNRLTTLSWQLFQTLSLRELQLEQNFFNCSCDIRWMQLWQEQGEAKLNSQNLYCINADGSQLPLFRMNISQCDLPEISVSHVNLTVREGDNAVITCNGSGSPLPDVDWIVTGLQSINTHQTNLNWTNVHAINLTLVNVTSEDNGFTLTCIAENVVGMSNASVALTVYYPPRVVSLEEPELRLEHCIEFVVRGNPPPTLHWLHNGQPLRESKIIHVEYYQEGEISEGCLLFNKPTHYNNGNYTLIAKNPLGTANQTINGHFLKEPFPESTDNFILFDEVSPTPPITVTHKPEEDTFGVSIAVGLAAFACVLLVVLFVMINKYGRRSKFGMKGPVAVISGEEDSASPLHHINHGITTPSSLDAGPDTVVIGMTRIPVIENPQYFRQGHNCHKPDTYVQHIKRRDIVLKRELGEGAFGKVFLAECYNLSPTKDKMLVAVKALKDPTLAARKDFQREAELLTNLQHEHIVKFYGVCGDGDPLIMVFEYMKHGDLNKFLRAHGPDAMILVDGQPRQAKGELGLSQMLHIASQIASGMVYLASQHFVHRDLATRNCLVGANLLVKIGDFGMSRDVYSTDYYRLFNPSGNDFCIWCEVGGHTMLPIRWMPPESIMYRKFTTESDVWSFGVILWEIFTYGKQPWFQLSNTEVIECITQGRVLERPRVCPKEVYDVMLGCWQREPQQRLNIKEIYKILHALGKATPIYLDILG
# appliedConditions: at 0.1 µM
measuredAttribute: inhibition (%)

Fc1ccc(-c2ncn(C3CCNCC3)c2-c2ccnc(Oc3ccccc3)n2)cc1: 1.74
NS(=O)(=O)c1ccc(-c2ccc3c(NC(=O)C4CC4)n[nH]c3c2)cc1: 2.06
COc1cc2c(cc1Nc1nc(Nc3ccsc3C(N)=O)c3cc[nH]c3n1)N(C(=O)CN(C)C)CCC2: -1.52
COc1cc(C=NNc2ncnc3c2cnn3Cc2ccccc2)ccc1O: 0.17
COc1cccc(-n2ncc3c(N/N=C/c4ccncc4)ncnc32)c1: 8.44
COc1cccc(COc2cc(-n3cnc4ccccc43)sc2C(N)=O)c1: -2.79
Nc1nonc1-c1nc2cnccc2n1C1CCCCC1: -0.5
CCn1c(-c2nonc2N)nc2c(C#CC(C)(C)O)ncc(OC[C@@H]3CCCN3)c21: 1.15
CCn1c(-c2nonc2N)nc2c(C#CC(C)(C)O)ncc(OCC3CCNCC3)c21: 3.15
CCn1c(-c2nonc2N)nc2c(C#CC(C)(C)O)nc(O[C@@H](CN)c3ccccc3)cc21: -1.62
NC(=O)c1sc(-n2cnc3cc(C(F)(F)F)ccc32)cc1OCc1ccccc1Br: 1.41
